Please respond with reported IC50 for every item in the list.
Test system: S. Typhimurium PhoP-regulated promoter GFP reporter, 4 h
Assay: inhibitors of PhoP regulon expression, primary screen, Salmonella Typhimurium, GFP reporter (AID 1863)

Compound	IC50
CN(C)c1ccc(/C=C/c2ccc3c4ccccc4ccc3[n+]2-c2ccccc2)cc1	21 µM
Cc1ccc(Nc2c3c(nc4ccccc24)CCC3)cc1	137 µM
NC1=NC[C@H](Cc2ccc(O)cc2)N1CCC12CC3CC(CC(C3)C1)C2	75.3 µM

Give IC50 for each of the items listed below.
1. COc1nsnc1NS(=O)(=O)c1ccc(NC(=S)NC(=O)c2cccnc2)cc1
2. CN1CCN(C(c2ccccn2)c2cc(Cl)c3cccnc3c2O)CC1 (configuration not stated)

Completion:
["116 µM", "95.8 µM"]

Give IC50 for each of the items listed below.
1. CCn1cc(C(=O)O)c(=O)c2cnc(N3CCNCC3)nc21
2. Nc1ncn([C@@H]2O[C@H](CO)[C@@H](O)[C@H]2O)c(=O)n1

Completion:
29.8 µM
50.4 µM

Give IC50 for each of the items listed below.
1. CCCCCCCCCCOC(=O)Cn1c(COc2ccc(C)cc2)[n+](C)c2ccccc21
2. CCCOc1ccc(C(=O)C(CCC(CNCC)C(=O)c2ccc(OCCC)cc2)CNCC)cc1 (configuration not stated)

Completion:
1: 18.8 µM; 2: 94.6 µM

----------
Test system: S. Typhimurium PhoP-regulated promoter GFP reporter, 4 h
Assay: inhibitors of PhoP regulon expression, primary screen, Salmonella Typhimurium, GFP reporter (AID 1863)
Property name: pIC50
One number for each entry, as −log10 of the molar value.

Examples with their reported pIC50 follow.
Molecule	Property name	Measured number
Oc1cccc(Nc2nc(NCC3CCCO3)c3ccccc3n2)c1 (stereo unspecified)	pIC50	3.85
CN(C)C1C(=O)C(C(N)=O)=C(O)C2(O)C(=O)C3=C(O)c4c(O)cccc4C(C)(O)C3CC12 (stereo unspecified)	pIC50	5.45
CN(O)/C=c1/ccc2c(n1)C(=O)C=CC=2	pIC50	3.95

Give pIC50 for each of the items listed below.
1. CCCCCCCCCCCCCCCCn1cc[n+](CC(C)=O)c1
2. Clc1ccc(OCCCNCc2ccccc2)c(Br)c1
3. O=C(Nc1nc(-c2ccccn2)cs1)c1ccc(Cl)s1
4. O=[N+]([O-])c1cc(CN2CCCC2)c2cccnc2c1O
5. C[C@H]1c2cccc(O)c2C(O)=C2C(=O)[C@]3(O)C(O)=C(C(N)=O)C(=O)[C@@H](N(C)C)[C@@H]3[C@@H](O)[C@@H]21
6. Oc1ccc(/C=N/Nc2nccnc2Cl)c(O)c1
7. CCCCCN=C(N)N/N=C/c1c[nH]c2ccc(OC)cc12
8. Nc1ncn(C2O[C@H](CO)[C@@H](O)[C@H]2O)c(=O)n1 (stereo partly specified)

Completion:
[4.50, 4.16, 4.16, 4.15, 5.20, 4.19, 4.29, 4.40]

Give pIC50 for each of the items listed below.
1. NC1=NC[C@H](c2ccccc2)N1CCCCC1CCCCC1
2. CC[C@H]1OC(=O)[C@H](C)[C@@H](O[C@H]2C[C@@](C)(OC)[C@@H](O)[C@H](C)O2)[C@H](C)[C@@H](O[C@@H]2O[C@H](C)C[C@H](N(C)C)[C@H]2O)[C@](C)(O)C[C@@H](C)CN(C)[C@H](C)[C@@H](O)[C@]1(C)O

Completion:
1. 4.39
2. 5.63

The reported numbers originate from PubChem BioAssay AID1863.
